// data source = PubChem BioAssay AID330

For each record, write down the corresponding T/C.
tested on: P388 leukemia ip, CD2F1 mice, survival T/C; test: NCI In Vivo Anticancer Drug Screen. Data for tumor model P388 Leukemia (intraperitoneal) in CD2F1 (CDF1) mice; details: endpoint: median survival time; dose: 100.0 mg/kg/injection; schedule: Q04DX003 (ip); vehicle: saline; higher = longer survival
Toxic doses and inconclusive results are not listed.

Respectfully, I request T/C for each entry included below.
1. O=[N+]([O-])c1cc(Br)cc2c1[nH]c1nc3ccc(C(F)(F)F)cc3nc12
2. CC(=O)N1C=[N+](C)C(C)(C)C1
3. O=[N+]([O-])c1nc(-[n+]2ccccc2)[n-]c1Br

Output:
91 % of control
103 % of control
98 % of control

---

For each record, write down the corresponding T/C.
test system: P388 leukemia ip, CD2F1 mice, survival T/C; experiment: NCI In Vivo Anticancer Drug Screen. Data for tumor model P388 Leukemia (intraperitoneal) in CD2F1 (CDF1) mice; conditions: endpoint: median survival time; dose: 200.0 mg/kg/injection; schedule: Q01DX009 (ip); vehicle: saline with Tween-80; higher = longer survival
Inconclusive results and toxic doses are left out.

Check out these entries, answers already filled in.
>>> df
                                   molecule  reported_metric   measured_result
0            Cc1nc2[nH]c(=S)[nH]c(=O)c2nc1C              T/C  100 % of control
1        CCOC(=O)Cn1c(=O)cc(-c2ccccc2)oc1=O              T/C   90 % of control
2       Cc1ccc(NS(=O)(=O)c2ccc(Cl)cc2)cc1Cl              T/C   98 % of control
3  N=Nc1c(OC(=O)Nc2cccc(Cl)c2)[nH]c2ccccc12              T/C   93 % of control
4  Nc1nccc2c1ncn2C1OC(CO)C(O)C1O (configuration not stated)              T/C   86 % of control
5     COc1ccc([Si](C)(C)CNCCSS(=O)(=O)O)cc1              T/C   90 % of control

Could you now consider this next molecule?
Task: Given `COc1cccc(/C=N/NC(=O)N/N=C/c2cccc(OC)c2O)c1O` , state its recorded T/C.
Output: 101 % of control

---

system: P388 leukemia ip, CD2F1 mice, survival T/C; assay: NCI In Vivo Anticancer Drug Screen. Data for tumor model P388 Leukemia (intraperitoneal) in CD2F1 (CDF1) mice; conditions: endpoint: median survival time; dose: 120.0 mg/kg/injection; schedule: Q01DX005 (ip); vehicle: saline with Tween-80; higher = longer survival
Toxic doses and inconclusive results are not listed.
For each record, write down the corresponding T/C.

>>> df
                             molecule   measured_result
0  O=c1c2c(c(=O)c(=O)c1=O)Nc1ccccc1N2  101 % of control

Respectfully, I request T/C for each entry included below.
1. COC(=O)N1C(=O)CO[C@@H]1C(C)(C)C
2. O=C1CC2COc3ccccc3C2=NN1c1ccccc1 (centres undefined)
3. NS(=O)(=O)c1ccc(NC(=O)c2cccnc2Nc2cccc(Cl)c2)cc1
4. CC(CN(C)C)C(/C=C/c1ccc(F)cc1)=N\Nc1ccccc1 (centres undefined)

Output:
["99 % of control", "94 % of control", "102 % of control", "122 % of control"]
